Source listed as patent US20190055314A1.

molecular target: T1, CD137-hisFc fusion protein (Sino Biological Cat 10041-H03H) (human, UniProt Q07011 24-186); test: BLI Octet, Fab;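 also: fab fragments expressed in E. coli, binding to human CD137 measured on Octet RED96, kinetics fitted with a 1:1 Langmuir model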
T1 construct: Bought; also called recombinant human CD137 (fused with human Fc and His tag); not shown: His tag and human Fc
observable: log10 koff (log10 of the value in s⁻¹)
// do not treat as linear: log10 of koff, unit s⁻¹

binder	result.value
Fab 5302 (Fab, V domains shown, Fab from E. coli; also called VH13/VL13) VH: EVQLVESGGGLVQPGGSLRLSCAASGFSLSTGGVGVAWIRQAPGKGLEWVSSISGYGSTTYYADSVKGRFTISRDNSKNTLYLQLNSLRAEDTAVYYCAREGSDAVLGDWFGYWGQGTLVTVSS VL: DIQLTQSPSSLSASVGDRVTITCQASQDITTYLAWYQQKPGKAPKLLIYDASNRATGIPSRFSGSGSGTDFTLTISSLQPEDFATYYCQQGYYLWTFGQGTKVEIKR	-3.37

Please look at the following binder next.
Short answer for Fab 5318 (Fab, V domains shown, Fab from E. coli; also called VH18/VL18) VH: EVQLVESGGGLVQPGGSLRLSCAASGFSLSTSGVAVGWIRQAPGKGLEWLALIDWDDDKYYSTSLKSRLTISRDNSKNTLYLQLNSLRAEDTAVYYCAREGSTAVAGDWFAYWGQGTLVTVSS VL: DIQLTQSPSSLSASVGDRVTITCQASQDIRTFLAWYQQKPGKAPKLLIYDASNRATGIPSRFSGSGSGTDFTLTISSLQPEDFATYYCQQGYSTWTFGQGTKVEIKR : log10 koff was -2.57
